- systemTested: Phosphodiesterase 4 (Homo sapiens, UniProt P27815+Q08499+Q07343+Q08493)
- procedureSummary: Relative inhibition of PDE4 activity and rolipram binding to PDE4
- Assay type: protein assay
quantity: Ratio

// below: answered compounds
Kindly note the recorded Ratio for Nc1cccc(-n2c(=O)n(Cc3ccccc3)c(=O)c3[nH]cnc32)c1 , which is 34

Kindly note the recorded Ratio for O=c1c2[nH]cnc2n(-c2cccc(Cl)c2)c(=O)n1Cc1ccccc1 , which is 156

a: Cc1ccccc1-n1c(=O)n(Cc2cccs2)c(=O)c2[nH]cnc21
b: C[S+]([O-])c1cccc(-n2c(=O)n(Cc3ccccc3)c(=O)c3[nH]cnc32)c1 (stereo not given)
Asked: From the recorded data, which exceeds the other in Ratio: a or b ? Indicate which entry you chose by stating its label.
Given back: b
(b: 35, a: 4.1)

====

- systemTested: Phosphodiesterase 4 (Homo sapiens, UniProt P27815+Q08499+Q07343+Q08493)
- procedureSummary: Inhibition of PDE4
- Type: protein assay
quantity: IC50 (µM)

// below: answered compounds
Kindly note the recorded IC50 for O=c1c2[nH]cnc2n(-c2ccccc2C(F)(F)F)c(=O)n1Cc1ccccc1 , which is 20

Kindly note the recorded IC50 for COc1cccc(-n2c(=O)n(Cc3ccccc3)c(=O)c3[nH]cnc32)c1 , which is 6.01

Kindly note the recorded IC50 for C[S+]([O-])c1ccccc1-n1c(=O)n(Cc2ccccc2)c(=O)c2[nH]cnc21 (stereo not given) , which is 100

Kindly note the recorded IC50 for Nc1cccc(-n2c(=O)n(Cc3ccccc3)c(=O)c3[nH]cnc32)c1 , which is 11

P: O=c1c2[nH]cnc2n(-c2cccc(Cl)c2)c(=O)n1Cc1ccccc1
Q: Cc1ccccc1-n1c(=O)n(Cc2cccs2)c(=O)c2[nH]cnc21
Asked: Given the listed items, does P or Q have the lesser reported IC50? Indicate which entry you chose by stating its label.
Given back: Q

A: CSc1ccccc1-n1c(=O)n(Cc2ccccc2)c(=O)c2[nH]cnc21
B: C[S+]([O-])c1cccc(-n2c(=O)n(Cc3ccccc3)c(=O)c3[nH]cnc32)c1 (stereo not given)
C: Cc1ccccc1-n1c(=O)n(Cc2ccco2)c(=O)c2[nH]cnc21
Asked: Order the records so the highest IC50 appears first and the lowest last. Thanks in advance for listing the labels in the requested order.
Given back: B, A, C
(B: 56 µM, A: 20 µM, C: 11.95 µM)

====

- systemTested: Phosphodiesterase 4 (Homo sapiens, UniProt P27815+Q08499+Q07343+Q08493)
- procedureSummary: Inhibition of rolipram binding
- Format: protein assay
quantity: IC50 (nM)

Considering COC(=O)c1cccc(-n2c(=O)n(Cc3ccccc3)c(=O)c3[nH]cnc32)c1 , its IC50 with Phosphodiesterase 4 (Homo sapiens, UniProt P27815+Q08499+Q07343+Q08493) was recorded as 9

Considering C[S+]([O-])c1cccc(-n2c(=O)n(Cc3ccccc3)c(=O)c3[nH]cnc32)c1 (centres undefined) , its IC50 with Phosphodiesterase 4 (Homo sapiens, UniProt P27815+Q08499+Q07343+Q08493) was recorded as 1600

Considering O=c1c2[nH]cnc2n(-c2ccccc2)c(=O)n1Cc1ccccc1 , its IC50 with Phosphodiesterase 4 (Homo sapiens, UniProt P27815+Q08499+Q07343+Q08493) was recorded as 80

Considering Cc1ccccc1-n1c(=O)n(Cc2ccccc2)c(=O)c2[nH]cnc21 , its IC50 with Phosphodiesterase 4 (Homo sapiens, UniProt P27815+Q08499+Q07343+Q08493) was recorded as 670

Considering Cc1ccccc1-n1c(=O)n(Cc2ccco2)c(=O)c2[nH]cnc21 , its IC50 with Phosphodiesterase 4 (Homo sapiens, UniProt P27815+Q08499+Q07343+Q08493) was recorded as 1100

Considering COc1cccc(-n2c(=O)n(Cc3ccccc3)c(=O)c3[nH]cnc32)c1 , its IC50 with Phosphodiesterase 4 (Homo sapiens, UniProt P27815+Q08499+Q07343+Q08493) was recorded as 17

Considering Nc1cccc(-n2c(=O)n(Cc3ccccc3)c(=O)c3[nH]cnc32)c1 , its IC50 with Phosphodiesterase 4 (Homo sapiens, UniProt P27815+Q08499+Q07343+Q08493) was recorded as 320

P: Cc1ccccc1-n1c(=O)n(Cc2cccs2)c(=O)c2[nH]cnc21
Q: O=c1c2[nH]cnc2n(-c2ccccc2F)c(=O)n1Cc1ccccc1
Asked: From the recorded data, which exceeds the other in IC50: P or Q ? Indicate which entry you chose by stating its label.
Given back: P

====

- systemTested: Phosphodiesterase 4 (Homo sapiens, UniProt P27815+Q08499+Q07343+Q08493)
- procedureSummary: Inhibition of PDE4
- Assay type: protein assay
quantity: IC50 (µM)

P: O=C(O)c1cccc(-n2c(=O)n(Cc3ccccc3)c(=O)c3[nH]cnc32)c1
Q: COC(=O)c1cccc(-n2c(=O)n(Cc3ccccc3)c(=O)c3[nH]cnc32)c1
Asked: Given the listed items, does P or Q have the lesser reported IC50? Indicate which entry you chose by stating its label.
Given back: Q

====

- systemTested: Phosphodiesterase 4 (Homo sapiens, UniProt P27815+Q08499+Q07343+Q08493)
- procedureSummary: Relative inhibition of PDE4 activity and rolipram binding to PDE4
- Format: protein assay
quantity: Ratio

// below: answered molecules
Considering COc1cccc(-n2c(=O)n(Cc3ccccc3)c(=O)c3[nH]cnc32)c1 , its Ratio with Phosphodiesterase 4 (Homo sapiens, UniProt P27815+Q08499+Q07343+Q08493) was recorded as 353

Considering Cc1ccccc1-n1c(=O)n(Cc2ccccc2)c(=O)c2[nH]cnc21 , its Ratio with Phosphodiesterase 4 (Homo sapiens, UniProt P27815+Q08499+Q07343+Q08493) was recorded as 11.9

A: COC(=O)c1cccc(-n2c(=O)n(Cc3ccccc3)c(=O)c3[nH]cnc32)c1
B: O=c1c2[nH]cnc2n(-c2ccccc2)c(=O)n1Cc1ccccc1
Asked: Given the listed items, does A or B have the lesser reported Ratio? Indicate which entry you chose by stating its label.
Given back: B

====

- systemTested: Phosphodiesterase 4 (Homo sapiens, UniProt P27815+Q08499+Q07343+Q08493)
- procedureSummary: Inhibition of PDE4
- Type: protein assay
quantity: IC50 (µM)

Considering O=c1c2[nH]cnc2n(-c2ccccc2)c(=O)n1Cc1ccccc1 , its IC50 with Phosphodiesterase 4 (Homo sapiens, UniProt P27815+Q08499+Q07343+Q08493) was recorded as 4.8

P: Cc1ccccc1-n1c(=O)n(Cc2ccccc2)c(=O)c2[nH]cnc21
Q: O=c1c2[nH]cnc2n(-c2ccccc2F)c(=O)n1Cc1ccccc1
Asked: Given the listed items, does P or Q have the lesser reported IC50? Indicate which entry you chose by stating its label.
Given back: Q
(Q: 2.4 µM, P: 7.97 µM)
